Reference for the values: PubChem BioAssay AID1159580

What normalized growth was measured for each of the following?
assay comment: chemical genetic growth profiling, strain panel (AID 1159580);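 note: tested at 20 µM; growth read once vehicle control cultures reached saturation at 30 °C; 1 = growth at the plate median or of vehicle wells; lower values mean less growth of the strain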
study conditions: S. cerevisiae deletion strains, growth OD, locus YNL248C, strain rpa49, hits give low values
In all, about 5,500 compounds went through this assay and about 2,000 (36%) were called active. About 18% were inconclusive and are not listed. This is one part of the list.
Give the figure only, with no unit attached.

Query string: Report normalized growth for CC(C[N+](C)(C)C)OC(N)=O (configuration not stated) please.
Result string: 1.01

Query string: Report normalized growth for CC(=O)N[C@@H](CC(C)C)C(=O)O please.
Result string: 0.989

Query string: Report normalized growth for CC(Oc1ccccc1)C(=O)N[C@@H]1C(=O)N2[C@@H]1SC(C)(C)[C@@H]2C(=O)O (some centres not stated) please.
Result string: 0.991

Query string: Report normalized growth for CN(C)C(=S)SSC(=S)N(C)C please.
Result string: 0.0732

Query string: Report normalized growth for Cc1[nH]c(C)c(Cl)c(=O)c1Cl please.
Result string: 1.01

Query string: Report normalized growth for COc1cc(O)c(C(=O)/C=C/c2ccccc2)c(OC)c1 please.
Result string: 0.951

Query string: Report normalized growth for COc1ccc(OC)c(C(O)C(C)N)c1 (configuration not stated) please.
Result string: 0.997

Query string: Report normalized growth for COCCc1ccc(OCC(O)CNC(C)C)cc1 (configuration not stated) please.
Result string: 0.992

Query string: Report normalized growth for COc1cc(/C=C/C(=O)/C=C(O)/C=C/c2ccc(O)c(OC)c2)ccc1O please.
Result string: 0.443

Query string: Report normalized growth for COc1cc(O)c(C(=O)/C=C/c2ccc(OC)c(O)c2)c(OC)c1 please.
Result string: 0.909

Query string: Report normalized growth for CC(C(=O)O)c1cccc(C(=O)c2ccccc2)c1 (configuration not stated) please.
Result string: 0.968

Query string: Report normalized growth for CO[C@H]1[C@H](O)[C@H](O[C@H]2CC[C@]3(C)C4CC[C@]5(C)C(C6=CC(=O)OC6)CC[C@]5(O)C4CC[C@@H]3C2)O[C@@H](C)[C@@H]1O (some centres not stated) please.
Result string: 0.991

Query string: Report normalized growth for COc1ccc2c(C)cc(=O)oc2c1 please.
Result string: 0.923

Query string: Report normalized growth for CC(C(=O)O)c1ccc(-c2ccccc2)c(F)c1 (configuration not stated) please.
Result string: 0.817

Query string: Report normalized growth for CC(=O)OCC(=O)[C@@]1(O)CCC2C3CCC4=CC(=O)CC[C@]4(C)C3C(=O)C[C@@]21C (some centres not stated) please.
Result string: 1

Query string: Report normalized growth for C=C(C)C1CNC(C(=O)O)C1CC(=O)O (configuration not stated) please.
Result string: 1.01

Query string: Report normalized growth for CC(=O)O[C@H]1[C@@H]2[C@@H](OC(=O)Cc3ccccc3)[C@@H](C)C[C@]2(OC(C)=O)C(=O)/C(C)=C/[C@H]2[C@H](CC[C@@]13CO3)C2(C)C please.
Result string: 0.98
